Origin of values: patent US20220064314A1

koff overview
# Assay System: T1, 4-1BB (CD137), antigen of the Octet kinetics (UniProt Q07011 24-186, limits assumed)
# T1 construct: also called TNFRSF9
# Measurement Description: Octet (BLI), mono-valent binding kinetics
The reply should be a number in s⁻¹, with the unit left off.

# annotated cases, reported koff shown
Quick check: koff of huG28.21.G2.4.4 (antibody, human IgG2, kappa, V domains shown, also called huG28.21.4.4) VH: EVQLQQSGAEVKKPGATVKLSCKASGFNIKDYYIHWVNQRPGQGLEWIGRIDPEDGDIAYAPKFQDRATLTVDTSTNTAYLELSSLRSEDTAVYYCTTGNYYAMDFWGQGTTVTVSS VL: QIVLTQSPATLSASPGERVTLSCTASSSVSSSYLHWYQQKPGSSPKLWIYSTSNLASGVPARFSGSGPGTSYTLTISSMEPEDAATYYCHQYHRSPPTFGQGTKLEIKR ?
0.00467

Any idea what its koff is? The binder is huF1.1.G2.2.4 (antibody, human IgG2, kappa, V domains shown, also called huF1.1.2.4) VH: QVQLVQSGAEVKKPGASVKVSCKASGYTFTFYTMHWLRQAPGQGLEWIGYINPSSGYTNYNQKFTDRATLTADTSTSTAYMELSSLRSEDTAVYYCARSDGSSSKWYFDVWGQGTTVTVSS VL: EIVLTQSPDFQSATPKEKVTITCRASSSVSYIHWYQQKPGSSPKAWISATSNLASGVPSRFSGSGSGTSYTLTINRVEAEDAATYYCQQWSSNPFTFGQGTKLEIKR
0.00559

// lookup koff for huG28.21.G2.1.4 (antibody, human IgG2, kappa, V domains shown, also called huG28.21.1.4) VH: EVQLVQSGAEVKKPGATVKISCKASGFNIKDYYIHWVNQAPGKGLEWIGRIDPEDGDIAYAPKFQDRVTLTVDTSTDTAYLELSSLRSEDTAVYYCTTGNYYAMDFWGQGTTVTVSS VL: QIVLTQSPATLSASPGERVTLSCTASSSVSSSYLHWYQQKPGSSPKLWIYSTSNLASGVPARFSGSGPGTSYTLTISSMEPEDAATYYCHQYHRSPPTFGQGTKLEIKR
0.00652

I have this binder here, cAb 137QL.F1.1.G2 (antibody, human IgG2, V domains shown, Chimeric antibody; also called Chimeric F1.1; cAb F1.1.G2) VH: QVQLQQSGAELARPGASVKMSCKASGYTFTFYTMHWLKQRPGQGLEWIGYINPSSGYTNYNQKFTDKATLTADKSSSTAYMQLSSLTSEDSAVYYCARSDGSSSKWYFDVWGTGTTVTVSS VL: QIVLSQSPTILSASPGEKVTMTCRASSSVSYIHWYQQKPGSSPKAWISATSNLASGVPARFSGSGSGTSYSLTISRVEAEDAATYYCQQWSSNPFTFGSGTKLEIK , and I need its recorded koff.
0.00578

Recorded koff of huF1.1.G2.4.4 (antibody, human IgG2, kappa, V domains shown, also called huF1.1.4.4) VH: QVQLVQSGAEVKKPGASVKMSCKASGYTFTFYTMHWLKQAPGQGLEWIGYINPSSGYTNYNQKFTDRATLTADKSTSTAYMELSSLRSEDTAVYYCARSDGSSSKWYFDVWGQGTTVTVSS VL: EIVLTQSPDFQSATPKEKVTITCRASSSVSYIHWYQQKPGSSPKAWISATSNLASGVPSRFSGSGSGTSYTLTINRVEAEDAATYYCQQWSSNPFTFGQGTKLEIKR , please.
0.00618

Next:
Dear colleague, I am looking for the recorded koff of the following binder: cAB 137QL.G28.21.G2 (antibody, human IgG2, V domains shown, Chimeric antibody; also called Chimeric G28.21; cAb G28.21.G2) VH: EVQLQQSGAELVRPGASVKLSCTASGFNIKDYYIHWVNQRPEQGLEWIGRIDPEDGDIAYAPKFQDKATLTVDTSSNTAYLHIIGLTSEDTAVYYCTTGNYYAMDFWGQGTSVTVSS VL: QIVLTQSPAIMSASLGERVTMTCTASSSVSSSYLHWYQQKPGSSPKLWIYSTSNLASGVPARFSGSGSGTSYSLTISSMEAEDAATYYCHQYHRSPPTFGSGTKLEIK
0.00523
